The measurements presented in this section are drawn from ChEMBL document CHEMBL1152169.

Record form. Attribute: CLint scaled. Fill in for each entry.
experiment: Metabolic stability assessed as intrinsic clearance in human liver microsomes
Give bare numbers, in mL/min/kg.

Below: 5 compounds and their reported CLint scaled.
- mol: "CNC[C@]1(O)Cc2ccccc2[C@@H]1Oc1ccc(O)cc1C"
  CLint scaled [mL/min/kg]: 10
- mol: "CNC[C@]1(O)Cc2ccccc2[C@@H]1Oc1ccccc1SC"
  CLint scaled [mL/min/kg]: 43
- mol: "CNC[C@]1(O)Cc2ccccc2[C@@H]1Oc1ccccc1Cl"
  CLint scaled [mL/min/kg]: 10
- mol: "CNC[C@]1(O)Cc2ccccc2[C@@H]1Oc1c(C)cccc1F"
  CLint scaled [mL/min/kg]: 17
- mol: "CNC[C@]1(O)Cc2ccccc2[C@@H]1Oc1ccccc1-c1cccc2ccccc12"
  CLint scaled [mL/min/kg]: 23

q: Output CLint scaled of CNC[C@]1(O)Cc2ccccc2[C@@H]1Oc1cc(F)ccc1C
a: 7

---

Below are IC50 values measured for Sodium-dependent noradrenaline transporter (Homo sapiens, UniProt P23975).
Give bare numbers, in nM.

Use the examples below as a reference point.
- molecule: "CNC[C@]1(O)Cc2ccccc2[C@@H]1Oc1ccccc1C"
  endpointUnit: "nM"
  IC50: 3
- molecule: "CNC[C@@]1(O)Cc2ccccc2[C@H]1Oc1ccccc1C"
  endpointUnit: "nM"
  IC50: 770
- molecule: "CNC[C@]1(O)Cc2ccccc2[C@@H]1Oc1cccc(O)c1C"
  endpointUnit: "nM"
  IC50: 4
- molecule: "CNC[C@]1(O)Cc2ccccc2[C@@H]1Oc1ccc(C)cc1C"
  endpointUnit: "nM"
  IC50: 2
- molecule: "CCc1ccccc1O[C@H]1c2ccccc2C[C@@]1(O)CNC"
  endpointUnit: "nM"
  IC50: 1.5
- molecule: "Cc1ccccc1O[C@H]1c2ccccc2C[C@@]1(O)CN"
  endpointUnit: "nM"
  IC50: 77
- molecule: "CNCC1(O)Cc2ccccc2C1Cc1ccccc1C (racemic)"
  endpointUnit: "nM"
  IC50: 30
- molecule: "CNC[C@@H]1Cc2ccccc2[C@@H]1Oc1ccccc1C"
  endpointUnit: "nM"
  IC50: 7
- molecule: "CNC[C@]1(O)Cc2ccccc2[C@@H]1Oc1ccccc1CO"
  endpointUnit: "nM"
  IC50: 300
- molecule: "CNC[C@]1(O)Cc2ccccc2[C@@H]1Oc1ccccc1SC"
  endpointUnit: "nM"
  IC50: 2

Consider the following items and state reported IC50 for each.
1. CNC[C@]1(O)Cc2ccccc2[C@@H]1Oc1c(C)cccc1F
2. CNCC1(O)Cc2ccccc2C1Sc1ccccc1C (racemic)
3. CNC[C@]1(O)Cc2ccccc2[C@@H]1Oc1ccccc1Cl
4. CNC[C@]1(O)Cc2ccccc2[C@@H]1Oc1cccc(F)c1C
5. CNC[C@]1(O)Cc2ccccc2[C@@H]1Oc1ccccc1F
6. CNCC1(O)Cc2ccccc2C1Oc1ccccc1C (racemic)

a:
[5, 10, 5, 3, 11, 30]

---

biological target: Sodium-dependent dopamine transporter (Homo sapiens, UniProt Q01959); assay: Inhibition of dopamine uptake at human DAT transfected in HEK cells
Sequence (Q01959 whole entry): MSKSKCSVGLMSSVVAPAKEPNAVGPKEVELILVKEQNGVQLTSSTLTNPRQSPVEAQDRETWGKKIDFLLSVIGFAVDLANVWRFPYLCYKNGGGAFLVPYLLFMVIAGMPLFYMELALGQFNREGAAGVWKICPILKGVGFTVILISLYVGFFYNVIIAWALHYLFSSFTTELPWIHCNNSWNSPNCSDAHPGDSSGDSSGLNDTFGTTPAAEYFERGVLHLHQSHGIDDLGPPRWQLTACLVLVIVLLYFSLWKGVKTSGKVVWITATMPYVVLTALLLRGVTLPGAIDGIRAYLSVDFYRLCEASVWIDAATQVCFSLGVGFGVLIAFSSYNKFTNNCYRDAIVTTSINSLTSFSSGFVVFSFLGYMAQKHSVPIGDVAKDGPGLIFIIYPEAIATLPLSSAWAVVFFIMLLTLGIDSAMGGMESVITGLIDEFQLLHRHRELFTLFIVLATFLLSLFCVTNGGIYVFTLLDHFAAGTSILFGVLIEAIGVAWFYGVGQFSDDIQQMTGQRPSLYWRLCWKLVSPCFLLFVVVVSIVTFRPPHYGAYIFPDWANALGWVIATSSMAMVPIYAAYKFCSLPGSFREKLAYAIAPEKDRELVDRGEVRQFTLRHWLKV
measure: IC50

Known IC50 results, listed for orientation:
- molecule: "CNC[C@]1(O)Cc2ccccc2[C@@H]1Oc1ccccc1OC"
  IC50: "> 10 µM"
- molecule: "CNC[C@]1(O)Cc2ccccc2[C@@H]1Oc1cccc(O)c1C"
  IC50: "4 µM"
- molecule: "CNC[C@@]1(O)Cc2ccccc2[C@H]1Oc1ccccc1C"
  IC50: "2.3 µM"

For each entry beneath this line, provide reported IC50.
1. CNC[C@]1(O)Cc2ccccc2[C@@H]1Oc1ccccc1CO
2. CCc1ccccc1O[C@H]1c2ccccc2C[C@@]1(O)CNC
3. Cc1ccccc1O[C@H]1c2ccccc2C[C@@]1(O)CN
4. CNCC1(O)Cc2ccccc2C1Cc1ccccc1C (racemic)
5. CNC[C@]1(O)Cc2ccccc2[C@@H]1Oc1cc(F)ccc1C
6. CNC[C@]1(O)Cc2ccccc2[C@@H]1Oc1ccc(O)cc1C
7. Cc1ccccc1OC1c2ccccc2CC1(O)CN (racemic)
8. Cc1ccccc1OC1c2ccccc2CC1(O)CNCCO (racemic)

a:
1: > 10 µM; 2: > 10 µM; 3: > 10 µM; 4: > 10 µM; 5: > 10 µM; 6: 5 µM; 7: > 10 µM; 8: > 10 µM

---

molecular target: Sodium-dependent serotonin transporter (Homo sapiens, UniProt P31645); test: Inhibition of serotonin uptake at human SERT transfected in HEK cells
Sequence (P31645 whole entry): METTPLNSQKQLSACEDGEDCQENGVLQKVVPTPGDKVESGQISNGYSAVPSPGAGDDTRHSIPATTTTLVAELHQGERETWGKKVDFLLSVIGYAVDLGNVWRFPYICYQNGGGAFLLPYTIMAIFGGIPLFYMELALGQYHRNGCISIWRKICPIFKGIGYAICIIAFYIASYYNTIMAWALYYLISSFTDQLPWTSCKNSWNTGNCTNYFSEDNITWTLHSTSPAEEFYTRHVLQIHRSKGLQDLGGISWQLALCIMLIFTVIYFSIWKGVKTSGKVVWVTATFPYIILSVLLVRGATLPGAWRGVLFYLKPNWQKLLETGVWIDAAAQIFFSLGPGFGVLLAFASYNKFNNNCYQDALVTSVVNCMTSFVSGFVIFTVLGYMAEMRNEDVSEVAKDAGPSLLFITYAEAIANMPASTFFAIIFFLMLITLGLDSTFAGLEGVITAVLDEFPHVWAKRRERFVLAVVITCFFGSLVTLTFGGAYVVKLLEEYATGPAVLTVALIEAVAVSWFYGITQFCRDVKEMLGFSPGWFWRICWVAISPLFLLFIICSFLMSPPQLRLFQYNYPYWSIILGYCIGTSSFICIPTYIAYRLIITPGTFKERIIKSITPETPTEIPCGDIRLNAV
Please provide measured pIC50 for the entries that follow.
Answers are plain numbers, as −log10 of the molar value.

- compound: "CNCC1(O)Cc2ccccc2C1Sc1ccccc1C (racemic)"
  obsValue: 5.85
- compound: "CCc1ccccc1O[C@H]1c2ccccc2C[C@@]1(O)CNC"
  obsValue: 6.10
- compound: "CNC[C@]1(O)Cc2ccccc2[C@@H]1Oc1ccc(O)cc1C"
  obsValue: 7.85
- compound: "CNC[C@]1(O)Cc2ccccc2[C@@H]1Oc1ccc(C)cc1C"
  obsValue: 8.30

Hello, I would appreciate it if you could give pIC50 for each entry below.
1. CNC[C@]1(O)Cc2ccccc2[C@@H]1Oc1ccc(F)cc1C
2. CNC[C@]1(O)Cc2ccccc2[C@@H]1Oc1ccccc1C
3. CNC[C@@H]1Cc2ccccc2[C@@H]1Oc1ccccc1C
4. CNC[C@]1(O)Cc2ccccc2[C@@H]1Oc1ccccc1Cl
5. Cc1ccccc1OC1c2ccccc2CC1(O)CNCCO (racemic)

a:
1: 8.22; 2: 6.74; 3: 5.85; 4: 6.15; 5: 5.46

---

assay: Metabolic stability assessed as intrinsic clearance in human liver microsome; settings: liver microsomes
Please provide measured CLint scaled for the entries that follow.

- mol: "CNC[C@]1(O)Cc2ccccc2[C@@H]1Oc1ccccc1F"
  CLint scaled: "≤ 3 mL/min/kg"

Now turn to the next molecule.
q: Hello, please tell me recorded CLint scaled for this one: CNC[C@]1(O)Cc2ccccc2[C@@H]1Oc1cccc(F)c1C
a: ≤ 3 mL/min/kg

---

biological target: Sodium-dependent serotonin transporter (Homo sapiens, UniProt P31645); test: Inhibition of serotonin uptake at human SERT transfected in HEK cells
measure: pIC50
One number for each entry, as −log10 of the molar value.

Solved entries:
- compound: "CNC[C@]1(O)Cc2ccccc2[C@@H]1Oc1ccccc1CO"
  obsValue: 5.74
- compound: "CCNCC1(O)Cc2ccccc2C1Oc1ccccc1C (racemic)"
  obsValue: 5.24
- compound: "CNCC1(O)Cc2ccccc2C1Cc1ccccc1C (racemic)"
  obsValue: 5.60

Dear reader, for each entry below, please note its pIC50.
1. CNC[C@]1(O)Cc2ccccc2[C@@H]1Oc1c(C)cccc1F
2. CNC[C@]1(O)Cc2ccccc2[C@@H]1Oc1cccc(O)c1C
3. CNC[C@]1(O)Cc2ccccc2[C@@H]1Oc1ccccc1OC
4. Cc1ccccc1O[C@H]1c2ccccc2C[C@@]1(O)CN
5. CNC[C@@]1(O)Cc2ccccc2[C@H]1Oc1ccccc1C
6. Cc1ccccc1OC1c2ccccc2CC1(O)CN (racemic)

a:
6.82
7.00
5.66
5.52
5.26
5.40

Okay, here is my list. What is pIC50 for each of these?
1. CNC[C@]1(O)Cc2ccccc2[C@@H]1Oc1cccc(F)c1C
2. CNC[C@]1(O)Cc2ccccc2[C@@H]1Oc1ccccc1-c1cccc2ccccc12

a:
[7.44, 8.00]

---

Give pIC50 for every item shown.
target: Sodium-dependent dopamine transporter (Homo sapiens, UniProt Q01959); assay: Inhibition of dopamine uptake at human DAT transfected in HEK cells
Answers are plain numbers, as −log10 of the molar value.

Please review the entries below; each comes with its answer.
- compound: "CNC[C@]1(O)Cc2ccccc2[C@@H]1Oc1ccc(F)cc1C"
  pIC50: 5.30
- compound: "CNC[C@]1(O)Cc2ccccc2[C@@H]1Oc1ccccc1C"
  pIC50: 5.80
- compound: "CNC[C@@H]1Cc2ccccc2[C@@H]1Oc1ccccc1C"
  pIC50: 5.46
- compound: "CNC[C@]1(O)Cc2ccccc2[C@@H]1Oc1ccccc1Cl"
  pIC50: 5.00
- compound: "CNC[C@]1(O)Cc2ccccc2[C@@H]1Oc1ccc(C)cc1C"
  pIC50: 5.10

I would be grateful if you could provide pIC50 for each of the following entries.
1. CNCC1(O)Cc2ccccc2C1Oc1ccccc1C (racemic)
2. CNC[C@]1(O)Cc2ccccc2[C@@H]1Oc1ccccc1F
3. CNCC1(O)Cc2ccccc2C1Sc1ccccc1C (racemic)
4. CNC[C@]1(O)Cc2ccccc2[C@@H]1Oc1cccc(F)c1C

a:
5.57
5.40
5.33
5.52

---

target: Sodium-dependent serotonin transporter (Homo sapiens); assay: Inhibition of serotonin uptake at human SERT transfected in HEK cells
Please provide measured IC50 for the entries that follow.

In the examples that follow, each entry is paired with its recorded IC50.
- compound: "CNC[C@]1(O)Cc2ccccc2[C@@H]1Oc1ccccc1SC"
  IC50: "500 nM"
- compound: "CNC[C@]1(O)Cc2ccccc2[C@@H]1Oc1cccc(C)c1C"
  IC50: "50 nM"
- compound: "CNCC1(O)Cc2ccccc2C1Oc1ccccc1C (racemic)"
  IC50: "700 nM"
- compound: "CNC[C@]1(O)Cc2ccccc2[C@@H]1Oc1ccccc1F"
  IC50: "700 nM"
- compound: "CNC[C@]1(O)Cc2ccccc2[C@@H]1Oc1cc(F)ccc1C"
  IC50: "200 nM"

Then there is this compound:
q: Answer briefly: IC50 recorded on Sodium-dependent serotonin transporter (Homo sapiens) for CNC[C@]1(OC)Cc2ccccc2[C@@H]1Oc1ccccc1C
a: > 10000 nM
